Molecular target: T1, human B7-H4 (purified monomeric recombinant human protein, ACRO biosystems) (human, UniProt Q7Z7D3 29-258, limits assumed, chemically biotinylated (EZ-Link NHS-LC-Biotin) in the yeast display and competition experiments; non-biotinylated in SPR)
T1 construct: Bought recombinant monomeric protein; also called B7x; B7S1
T1 sequence: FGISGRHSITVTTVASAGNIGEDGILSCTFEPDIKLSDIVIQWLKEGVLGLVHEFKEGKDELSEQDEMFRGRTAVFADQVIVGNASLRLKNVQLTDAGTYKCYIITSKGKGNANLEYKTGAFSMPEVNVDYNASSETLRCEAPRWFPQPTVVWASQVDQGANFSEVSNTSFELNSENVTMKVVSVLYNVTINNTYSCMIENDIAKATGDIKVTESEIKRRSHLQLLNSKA
Assay: SPR (Carterra LSA); scFv-Fc captured on anti-human IgG Fc, antigen injected
quantity: kon (M⁻¹ s⁻¹)
# unit: M⁻¹ s⁻¹ | format: bare number

// solved cases for kon follow
B03 scFv-Fc (scFv, V domains shown, Tested as scFv-Fc fusion (human IgG1 Fc, vector pDNL9) in crude yeast supernatant; Combo 1 library) VH: EVQLVESGGGVVQPGRSLRLSCAASGFTFGDRAMNWVRQAPGKGLEWVSAISGSGSGTYYADSVKGRFTISRDNSKNTLYLQMNSLRAEDTAVYYCARKRWYGMDVWGQGTTVTVSS VL: SYELTQPPSVSVAPGKTARITCGGNNIGMKSVHWYQQKPGQAPVLVVYDDSDRPSGIPERFSGSNSGNTATLTISRVEAGDEADYYCQVWDRGMIFGTGTKLTVL	300000
B11 scFv-Fc (scFv, V domains shown, Tested as scFv-Fc fusion (human IgG1 Fc, vector pDNL9) in crude yeast supernatant; Combo 2 library) VH: EVQLVESGGGVVQPGRSLRLSCAASGFTFTSRAMNWVRQAPGKGLEWVSAISGSGATAYYADSVKGRFTISRDNSKNTLYLQMNSLRAEDTAVYYCARKRWYGMDVWGQGTTVTVSS VL: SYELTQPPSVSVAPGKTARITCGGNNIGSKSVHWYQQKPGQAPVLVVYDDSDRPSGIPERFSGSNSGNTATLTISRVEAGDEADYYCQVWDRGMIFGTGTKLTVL	180000

Exercise: Name the reported kon value associated with the binder B06 scFv-Fc (scFv, V domains shown, Tested as scFv-Fc fusion (human IgG1 Fc, vector pDNL9) in crude yeast supernatant; Combo 1 library) VH: EVQLVESGGGVVQPGRSLRLSCAASGFTFSNKAMNWVRQAPGKGLEWVSAISGSGATTYYADSVKGRFTISRDNSKNTLYLQMNSLRAEDTAVYYCARKRWYGMDVWGQGTTVTVSS VL: SYELTQPPSVSVAPGKTARITCGGNNIGVKAVHWYQQKPGQAPVLVVYDDSDRPSGIPERFSGSNSGNTATLTISRVEAGDEADYYCQVWDRGMIFGTGTKLTVL
Solution: 170000

Exercise: Name the reported kon value associated with the binder B04 scFv-Fc (scFv, V domains shown, Tested as scFv-Fc fusion (human IgG1 Fc, vector pDNL9) in crude yeast supernatant; Combo 1 library) VH: EVQLVESGGGVVQPGRSLRLSCAASGFSFSSRAMNWVRQAPGKGLEWVSAVSGSGSGTYYADSVKGRFTISRDNSKNTLYLQMNSLRAEDTAVYYCARKRWYGMDVWGQGTTVTVSS VL: SYELTQPPSVSVAPGKTARITCGGNNIGLKSVHWYQQKPGQAPVLVVYDDSDRPSGIPERFSGSNSGNTATLTISRVEAGDEADYYCQVWDRGMIFGTGTKLTVL
Solution: 160000
